This collection of values is drawn from ChEMBL document CHEMBL1145587.

Consider the following compounds and their measured pIC50 readings.
experiment: Cytotoxicity against […] cells; assay type: functional, cell-based; conditions: Mus musculus, P388CPT45
pIC50: −log10 of the molar value.

{"columns": ["COMPOUND", "LIMIT QUALIFIER", "pIC50"],
 "data": [
  ["COc1cc2c(=O)n(CCN(C)C)c3c4cc5c(cc4ncc3c2cc1OC)OCO5", "=", 6.64],
  ["COc1cc2c(=O)n(CCNC(CO)(CO)CO)c3c4cc5c(cc4ncc3c2cc1OC)OCO5", "=", 5.46],
  ["COc1cc2c(=O)n(CCO)c3c4cc5c(cc4ncc3c2cc1OC)OCO5", "=", 6.05],
  ["CC[C@@]1(O)C(=O)OCc2c1cc1n(c2=O)Cc2cc3ccccc3nc2-1 [CAMPTOTHECIN]", "<", 5.00],
  ["COc1cc2c(=O)n(CCNC(CO)(CO)CO)c3c4cc5c(cc4nnc3c2cc1OC)OCO5", "=", 5.52],
  ["COc1cc2c(=O)n(CCn3ccnc3)c3c4cc5c(cc4ncc3c2cc1OC)OCO5", "<", 5.00],
  ["COc1cc2c(=O)n(CCO)c3c4cc5c(cc4nnc3c2cc1OC)OCO5", "=", 6.15],
  ["COc1cc2c(=O)n(CCN(C)C)c3c4cc5c(cc4nnc3c2cc1OC)OCO5", "=", 6.64],
  ["COc1cc2c(=O)n(CCN(C)CCN(C)C)c3c4cc5c(cc4ncc3c2cc1OC)OCO5", "=", 7.15],
  ["COc1cc2c(=O)n(CCN(C)CCN(C)C)c3c4cc5c(cc4nnc3c2cc1OC)OCO5", "=", 6.52],
  ["COc1cc2c(=O)n(CCn3ccnc3)c3c4cc5c(cc4nnc3c2cc1OC)OCO5", "<", 5.00]
]}

----------
molecular target: DNA topoisomerase 1 (Homo sapiens); test: Effect on human topoisomerase 1-mediated plasmid DNA cleavage relative to topotecan
METRIC NAME: Activity

{"columns": ["MOLECULE", "METRIC NAME", "READOUT NUMBER"],
 "data": [
  ["COc1cc2c(=O)n(CCN(C)CCN(C)C)c3c4cc5c(cc4nnc3c2cc1OC)OCO5", "Activity", 0.4],
  ["COc1cc2c(=O)n(CCN(C)C)c3c4cc5c(cc4ncc3c2cc1OC)OCO5", "Activity", 0.3],
  ["COc1cc2c(=O)n(CCN(C)CCN(C)C)c3c4cc5c(cc4ncc3c2cc1OC)OCO5", "Activity", 0.7],
  ["COc1cc2c(=O)n(CCNC(CO)(CO)CO)c3c4cc5c(cc4nnc3c2cc1OC)OCO5", "Activity", 0.2],
  ["COc1cc2c(=O)n(CCO)c3c4cc5c(cc4nnc3c2cc1OC)OCO5", "Activity", 0.3],
  ["COc1cc2c(=O)n(CCn3ccnc3)c3c4cc5c(cc4nnc3c2cc1OC)OCO5", "Activity", 0.1],
  ["COc1cc2c(=O)n(CCN(C)C)c3c4cc5c(cc4nnc3c2cc1OC)OCO5", "Activity", 0.3],
  ["CC[C@@]1(O)C(=O)OCc2c1cc1n(c2=O)Cc2cc3ccccc3nc2-1 [CAMPTOTHECIN]", "Activity", 0.2],
  ["COc1cc2c(=O)n(CCn3ccnc3)c3c4cc5c(cc4ncc3c2cc1OC)OCO5", "Activity", 2.3],
  ["COc1cc2c(=O)n(CCO)c3c4cc5c(cc4ncc3c2cc1OC)OCO5", "Activity", 4.7],
  ["COc1cc2c(=O)n(CCNC(CO)(CO)CO)c3c4cc5c(cc4ncc3c2cc1OC)OCO5", "Activity", 2]
]}
